biological target: recombinant human TFPI (tissue factor pathway inhibitor) (human, UniProt P10646 29-304); test: cell-based or functional assay
measured-metric: FXa assay % of FXa alone, 10 nM Ab, 10 nM TFPI (%)

[
  {
    "binder": "clone 1024 (antibody, V domains shown) VH: EVQLVESGGGLVKPGGSLRLSCAASGFTFSSYAMSWVRQAPGKGLEWVSTITTGGSYTYYADSVDGRFTISRDNAKNSLYLQMNSLRAEDTAVYYCARQDGNFLMDYWGQGTLVTVSS VL: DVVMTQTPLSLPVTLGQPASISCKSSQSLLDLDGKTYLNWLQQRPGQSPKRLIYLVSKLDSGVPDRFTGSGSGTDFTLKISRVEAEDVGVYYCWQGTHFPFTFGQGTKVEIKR",
    "result-number": 20.4
  },
  {
    "binder": "clone 1023 (antibody, V domains shown, scFv on yeast at selection; human IgG4/kappa IgG as purified) VH: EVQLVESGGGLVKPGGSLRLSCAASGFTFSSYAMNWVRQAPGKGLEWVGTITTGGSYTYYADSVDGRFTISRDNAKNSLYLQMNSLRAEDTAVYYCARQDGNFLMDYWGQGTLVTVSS VL: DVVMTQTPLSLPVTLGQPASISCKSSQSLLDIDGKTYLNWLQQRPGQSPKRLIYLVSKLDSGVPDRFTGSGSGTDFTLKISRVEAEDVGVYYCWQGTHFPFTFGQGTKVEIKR",
    "result-number": 89.6
  },
  {
    "binder": "clone 1001 (antibody, V domains shown) VH: EVQLVESGGGLVKPGGSLRLSCAASGFTFSSYAMNWVRQAPGKGLEWVSTITTGGSYTYYADSVDGRFTISRDNAKNSLYLQMNSLRAEDTAVYYCARQDGNFLMDYWGQGTLVTVSS VL: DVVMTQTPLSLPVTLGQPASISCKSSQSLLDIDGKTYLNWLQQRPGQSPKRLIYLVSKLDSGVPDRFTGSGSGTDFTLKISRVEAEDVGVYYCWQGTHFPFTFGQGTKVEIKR",
    "result-number": 66.9
  },
  {
    "binder": "clone 1104 (antibody, V domains shown) VH: EVQLVESGGGLVKPGGSLRLSCAASGFTFSSYAMNWVRQAPGKGLEWVGTITTGGSHTYYADSVQGRFTISRDNAKNSLYLQMNSLRAEDTAVYYCARQDGNFLMDYWGQGTLVTVSS VL: DVVMTQTPLSLPVTLGQPASISCKSSQSLLDVDGKTYLNWLQQRPGQSPKRLIYLVSKLDSGVPDRFTGSGSGTDFTLKISRVEAEDVGVYYCWQGTHFPFTFGQGTKVEIKR",
    "result-number": 60
  }
]
